The measured values listed here are drawn from ChEMBL document CHEMBL1201862.

Test system: OVCAR-4
procedure_details: NCI tumour cell line growth inhibition, 48 h
Calls of active or inactive are those of the source. No stated cut-off is given here; in the data, active = GI50 up to about 1.1 µM and inactive = higher. Where a SMILES comes first, the peptide text is derived from it. [ ]: non-standard residue; d: D form. Phe(4-Cl) = N[CH](Cc1ccc(Cl)cc1)C(=O)O
Quick list: GI50 per entry.

Cc1ccc(S(=O)(=O)N/C(=C\C=C\c2ccccc2)C(=O)C(C)(C)C)cc1 = 35.2 µM (inactive)
O=C1c2ccccc2CCCCCCCCCCC12OCCCO2 = 57.1 µM (inactive)
COc1cc2c(cc1O)-c1c(cnn1-c1ccc([N+](=O)[O-])cc1)CCC2 = 19.1 µM (inactive)
C[C@@H]1CCC2[C@@H](C)[C@H](O[C@H]3O[C@@H]4O[C@@]5(C)CCC6[C@H](C)CCC([C@H]3C)[C@]64OO5)O[C@@H]3O[C@@]4(C)CCC1[C@@]23OO4 (some centres undefined) = 0.27 µM (active)
CC(O)C(NC(=O)C(Cc1ccccc1)NC(=O)C(NC(=O)C(CCCCN)NC(=O)C(Cc1c[nH]c2ccccc12)NC(=O)C(Cc1ccc(O)cc1)NC(=O)C(Cc1ccc(Cl)cc1)NC(=O)C(N)Cc1ccccc1)C(C)O)C(N)=O (centres undefined) (H-F[Phe(4-Cl)]YWKTFT-NH2; configuration not given here) = 23.9 µM (inactive)

compound CCCCC#COP(=O)(OCC)OCC , GI50 observed: > 100 µM (inactive)

compound C=C1CCC2CC1[C@@H](C(=O)c1c[nH]c3ccccc13)NC2(C)C (some centres undefined) , GI50 observed: > 37.5 µM (inactive)

----------
Test system: RPMI-8226
procedure_details: NCI tumour cell line growth inhibition, 48 h
Active and inactive are the calls of the source. Rule as the data show it: active = GI50 up to about 1.1 µM and inactive = higher.
Hello, when you answer, please use one of the following outcomes: active, inactive

Look over these answered cases.
Cn1cc2c(n1)c(N/N=C/c1ccccc1)nn1nnnc21 = inactive
COc1ccccc1/N=N/C(=N/NC(=O)c1ccc(C)cc1)c1ccc(N(CCC#N)CCC#N)cc1OC = inactive
O=c1c2ccccc2nc(-c2ccccc2)n1NC(=S)Nc1cccc(Cl)c1 = inactive
Cc1cc2[nH]c(Cl)c(/C=C3\C(=O)Nc4ccccc43)c2cc1O = inactive
CN(C(=O)C1CCCCCC1=O)c1ccccc1Cl (stereo not given) = inactive
O=C1c2c(O)ccc(O)c2C(=O)c2c(NCCNC(=O)C(O)C(O)C(O)C(O)CO)ccc(NCCNC(=O)C(O)C(O)C(O)C(O)CO)c21 (stereo not given) = active
CCc1cccc(C(C)C)c1NC(=O)C(=O)C1C(=O)Nc2ccccc2[S+]1[O-] (stereo not given) = inactive
CC(C)[Si](OC1=C(C(=O)N(C)c2ccccc2Cl)CCCC1)(C(C)C)C(C)C = inactive

Per the records of this test, what outcome belongs to COc1cc(Cc2cc(OC)c(OC)c(OC)c2)ccc1O ?
inactive

Per the records of this test, what outcome belongs to CC(C)[Si](OC1=CCCCCC12C(=O)N(C)c1ccccc12)(C(C)C)C(C)C (stereo not given) ?
inactive

----------
Test system: NCI-H23
procedure_details: NCI tumour cell line growth inhibition, 48 h
The source made the active and inactive calls. Cut-off read from the data, not from the text of the source: active = GI50 up to about 1.1 µM and inactive = higher.
Quick list: GI50 per entry.

Observe how each entry below is paired with its result.
O=S(=O)(O)c1ccc(NN(c2c(O)ccc3ccccc23)S(=O)(=O)O)cc1 = > 100 µM (inactive)
CCc1cccc(CC)c1NC(=O)C(C#N)C1=C(Cl)C(=O)c2ccccc2C1=O (centres undefined) = 13 µM (inactive)

molecule CC(=O)N1C(C(=O)NN2CCOCC2)CSC1c1ccccc1 (centres undefined) , GI50 observed: > 100 µM (inactive)

molecule CC1OC(=O)c2ccccc2NC1=O (centres undefined) , GI50 observed: > 100 µM (inactive)
